Experiment: qHTS assay to identify aromatase inhibitors - cell viability counter screen (AID 743084);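 further: cells stimulated with testosterone during compound exposure; nearly all actives have a fitted effect of over 55% in size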
Conditions: MCF-7 aro ERE viability, CellTiter-Fluor, 24 h; series mostly up to 70.3 µM
Records with an inconclusive call do not appear. Activity calls are given as the source filed them. The call rests on the fitted dose curve; in most records, active means well fitted cell-killing curve with a large enough effect in the repeat runs; inconclusive means weak or mixed curves, or effect the other way; inactive means no such curve, though single readings can be large or run the other way.
Pick one: active, inactive

[
  {
    "compound": "CNC(=O)Oc1ccccc1C1OCCO1",
    "assigned.category": "inactive"
  },
  {
    "compound": "CC1(C)C(=O)NC(=O)NC1=O",
    "assigned.category": "inactive"
  }
]

Exercise: Can you look up the reported call for "CC(=O)C(Cl)Cl" for me?
Key: inactive

###

Molecular target: Cytochrome P450 2D6 (Homo sapiens)
Assay: Cytochrome P450 Family 2 Subfamily D Member 6 (CYP2D6) small molecule antagonists: luciferase reporter qHTS assay (AID 1671196); further: nearly all actives have a fitted effect of over 50% in size
Details: P450-Glo CYP2D6 enzyme assay, luciferin luminescence, 1 h; series mostly up to 115 µM
Inconclusive results are not listed. Activity calls are given as the source filed them. The call rests on the fitted dose curve; in most records, active means well fitted inhibition curve with a large enough effect in the repeat runs; inconclusive means weak or mixed curves; inactive means no such curve, though single readings can be large or run the other way.
Select the correct class. Options are Yes (active), No (inactive) and nothing else.

[
  {
    "compound": "CCC#N",
    "test.target": "Cytochrome P450 2D6 (Homo sapiens)",
    "assigned.category": "No"
  },
  {
    "compound": "CCN(CC)C(C)C(=O)c1ccccc1 (centres undefined)",
    "test.target": "Cytochrome P450 2D6 (Homo sapiens)",
    "assigned.category": "Yes"
  },
  {
    "compound": "CCOP(=S)(Oc1cnc(C(C)(C)C)nc1)OC(C)C (centres undefined)",
    "test.target": "Cytochrome P450 2D6 (Homo sapiens)",
    "assigned.category": "Yes"
  },
  {
    "compound": "CCCCc1c(C)nc(NCC)[nH]c1=O",
    "test.target": "Cytochrome P450 2D6 (Homo sapiens)",
    "assigned.category": "No"
  },
  {
    "compound": "COP(N)(=S)Oc1ccccc1C(=O)OC(C)C (centres undefined)",
    "test.target": "Cytochrome P450 2D6 (Homo sapiens)",
    "assigned.category": "Yes"
  },
  {
    "compound": "OCCSCSCCO",
    "test.target": "Cytochrome P450 2D6 (Homo sapiens)",
    "assigned.category": "No"
  },
  {
    "compound": "O=C(Oc1ccc(Br)cc1)N1CCN2CCC1CC2",
    "test.target": "Cytochrome P450 2D6 (Homo sapiens)",
    "assigned.category": "No"
  },
  {
    "compound": "C[N+](C)=CCl",
    "test.target": "Cytochrome P450 2D6 (Homo sapiens)",
    "assigned.category": "No"
  }
]

Exercise: Dear colleague, could you share the recorded outcome for "c1coc(-c2nc3ccccc3[nH]2)c1" when you have a moment?
Key: Yes

Exercise: What was the test verdict on "COc1cc(C[C@@H](C)N)c(OC)cc1C" ?
Key: Yes

Exercise: Assay outcome for CC(C)(C)C(=O)C(Oc1ccc(Cl)cc1)n1cncn1 (centres undefined) : what was it?
Key: No

###

Experiment: qHTS assay to identify small molecule antagonists of the estrogen receptor alpha (ER-alpha) signaling pathway using the BG1 cell line (AID 743080);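 further: BG1 cells stimulated with 17beta-estradiol alongside compound; nearly all actives have a fitted effect of over 25% in size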
Details: BG1Luc4E2 ERE-luciferase antagonist mode, luminescence; series mostly up to 70.3 µM
Results filed as inconclusive are left out. Calls of active or inactive are those of the source. Calls come from the whole dose curve.
Entry note: the call must match one of active, inactive

[
  {
    "compound": "Cc1cccc(C#N)c1",
    "assigned.category": "inactive"
  }
]

Exercise: Dear colleague, could you share the recorded outcome for "CCC1(c2ccccc2)C(=O)NC(=O)NC1=O" when you have a moment?
Key: inactive

Exercise: Give the logged outcome of this assay for the following compound: "CN1C(=S)CN=C(c2ccccc2)c2cc(Cl)ccc21"
Key: active

###

Biological target: Cytochrome P450 3A4 (Homo sapiens) (UniProt P08684)
Sequence (P08684 whole entry, looked up): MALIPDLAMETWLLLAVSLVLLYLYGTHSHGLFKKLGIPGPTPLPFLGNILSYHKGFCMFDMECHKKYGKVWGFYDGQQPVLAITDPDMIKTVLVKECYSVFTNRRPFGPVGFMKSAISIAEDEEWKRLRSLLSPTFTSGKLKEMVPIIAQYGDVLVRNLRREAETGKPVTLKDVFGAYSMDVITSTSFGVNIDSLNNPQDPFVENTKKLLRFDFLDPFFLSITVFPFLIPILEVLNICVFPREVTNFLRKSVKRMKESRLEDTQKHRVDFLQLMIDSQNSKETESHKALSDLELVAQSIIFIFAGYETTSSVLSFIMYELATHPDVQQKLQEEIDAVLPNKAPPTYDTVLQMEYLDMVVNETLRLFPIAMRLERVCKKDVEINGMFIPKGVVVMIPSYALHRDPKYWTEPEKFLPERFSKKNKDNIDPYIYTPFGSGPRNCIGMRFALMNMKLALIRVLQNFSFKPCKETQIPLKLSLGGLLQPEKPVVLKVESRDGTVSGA
Assay: Cytochrome P450 Family 3 Subfamily A Member 4 (CYP3A4) small molecule antagonists: luciferase reporter qHTS assay (AID 1671201); further: nearly all actives have a fitted effect of over 50% in size
Conditions: P450-Glo CYP3A4 enzyme, luciferin luminescence, 1 h; series mostly up to 115 µM
Excerpt: National Center for Advancing Translational Sciences [NCATS] U.S. Environmental Protection Agency [EPA] National Institutes of Environmental Health Sciences [NIEHS] National Toxicology Program [NTP] U.S. Food and Drug Administration [FDA] Cytochrome P450 (CYP) enzymes are membrane-bound hemeproteins that play a key role in metabolism of drugs and xenobiotics. […] The luciferin products formed are detected with a luciferin detection reagent, and the amount of light produced is proportional to CYP activity. […]
Results filed as inconclusive are left out. Calls of active or inactive are those of the source. Calls come from the whole dose curve; as a rule, active = well fitted inhibition curve with a large enough effect in the repeat runs; inconclusive = weak or mixed curves; inactive = no such curve, though single readings can be large or run the other way.
Would you mind answering with one of these outcomes? Y (active), N (inactive)

The following compounds have reported results that may help.
[
  {
    "compound": "c1coc(-c2nc3ccccc3[nH]2)c1",
    "assigned.category": "N"
  },
  {
    "compound": "CCS(=O)(=O)C(C)(C)S(=O)(=O)CC",
    "assigned.category": "N"
  },
  {
    "compound": "CC(Oc1ccc(Oc2ncc(C(F)(F)F)cc2Cl)cc1)C(=O)O (stereo not drawn)",
    "assigned.category": "N"
  },
  {
    "compound": "CC(C)(C)C(=O)C(Oc1ccc(Cl)cc1)n1cncn1 (stereo not drawn)",
    "assigned.category": "Y"
  },
  {
    "compound": "COc1ncc(F)c2nc(S(=O)(=O)Nc3c(F)cccc3F)nn12",
    "assigned.category": "N"
  },
  {
    "compound": "C=C(C)CN(CC)c1c([N+](=O)[O-])cc(C(F)(F)F)cc1[N+](=O)[O-]",
    "assigned.category": "N"
  }
]

Exercise: Entry CCOP(=S)(Oc1cnc(C(C)(C)C)nc1)OC(C)C (stereo not drawn) : call = ?
Key: Y

Exercise: State the result this test recorded for "COc1cc(OC)nc(NC(=O)NS(=O)(=O)c2ncccc2C(=O)N(C)C)n1" .
Key: N

Exercise: Please let me know the test result on file for "CN(N=O)C(N)=O" .
Key: N

Exercise: Which outcome did this test record for the compound "O=C(NCO)NCO" ?
Key: N

Exercise: Write down the call the test reported for this compound. Item: "ClCCOCOCCCl"
Key: N

Exercise: Called result for "CC1=NNC(=O)N(/N=C/c2cccnc2)C1"
Key: N

Exercise: Could you check what this test reported for "CCCCP(CCCC)CCCC" ?
Key: N

###

Assay: qHTS assay to identify small molecule agonists of the sonic hedgehog signaling (Shh) pathway (AID 1259368);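 further: NIH/3T3-derived 3T3Gli1-Luc cells carrying a stable Gli1-driven firefly luciferase reporter; nearly all actives have a fitted effect of over 15% in size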
Conditions: NIH/3T3 Gli1-Luc reporter, luciferase, 24 h, hits give high values; series mostly up to 92.4 µM
Activity calls are given as the source filed them. The call rests on the fitted dose curve.
parameter.measured: activity change

These recorded examples may help you get a feel for the data.
[
  {
    "molecule": "O=C1CN2CCOC2(c2ccccc2Cl)c2cc(Cl)ccc2N1 (stereo not drawn)",
    "obs.value": "inactive"
  },
  {
    "molecule": "CCN(CC)C(=O)[C@@H]1C=C2c3cccc4[nH]cc(c34)C[C@H]2N(C)C1",
    "obs.value": "inactive"
  },
  {
    "molecule": "O=C1OC(=O)C2C1C1(Cl)C(Cl)=C(Cl)C2(Cl)C1(Cl)Cl (stereo not drawn)",
    "obs.value": "inactive"
  },
  {
    "molecule": "COc1cc(OC)nc(Oc2cccc(Oc3nc(OC)cc(OC)n3)c2C(=O)O)n1",
    "obs.value": "inactive"
  }
]

Look at each molecule and report its activity change.
1. CCS(=O)(=O)C(C)(C)S(=O)(=O)CC
2. Cc1ncsc1CCCl
3. CC1CCCCC1NC(=O)Nc1ccccc1 (stereo not drawn)
4. COCC(=O)N(c1c(C)cccc1C)N1CCOC1=O
5. CN(C)CCc1ccc(O)cc1

Key:
1. inactive
2. inactive
3. inactive
4. inactive
5. inactive

# batch: return activity change for each of the 5 molecules below
1. O=[N+]([O-])c1cccc2c([N+](=O)[O-])cccc12
2. CCNc1nc(NC(C)C)nc(OC)n1
3. BrCCCCCCBr
4. O=C(Oc1ccc(Br)cc1)N1CCN2CCC1CC2
5. CC1(C)C(=O)NC(=O)NC1=O

Key:
["inactive", "inactive", "inactive", "inactive", "inactive"]

Please state, for each entry, its recorded activity change.
1. CCOP(=O)(OCC)OP(=O)(OCC)OCC
2. Cc1cc(C)c(C(=O)P(=O)(C(=O)c2c(C)cc(C)cc2C)c2ccccc2)c(C)c1
3. CC(=O)Nc1cc([As](=O)(O)O)ccc1O
4. CCCCOC(=O)c1ccccc1N
5. Cc1nnc2n1-c1sc(CCC(=O)N3CCOCC3)cc1C(c1ccccc1Cl)=NC2
6. CCOC(=O)C1(c2ccccc2)CCN(CCc2ccc(N)cc2)CC1
7. CCC1(c2ccccc2)C(=O)N=C(O)NC1=O (stereo not drawn)

Key:
inactive
inactive
inactive
inactive
inactive
inactive
inactive

Batch request: activity change per item, same order as input.
1. O=C(O)C(Br)CBr (stereo not drawn)
2. C#CCN1C(=O)COc2cc(F)c(N3C(=O)C4=C(CCCC4)C3=O)cc21

Key:
["inactive", "inactive"]
